biological target: human CXCR4 receptor (Homo sapiens); construct: expressed in transfected cells; experiment: Measurement of intracellular Ca+2 responses (FLIPR), antagonism of the SDF-1α response; format: cell-based; settings: HEK-Gqi5 cells stably expressing human CXCR4; Fluo-4 FLIPR; antagonism of SDF-1α 1.9 nM (EC65); values in nM
Entries and their log10 IC50 values follow.
Measured Parameter: log10 IC50 (log10 of the value in nM)

{"Compound": "COc1cc2nc(NCc3cncs3)nc(NC3CCN(Cc4c(OCCN(C)C)cccc4N(C)C)CC3)c2cc1OC [Compound 197]", "Val": 1.53}
{"Compound": "COc1cccc(N(C)C)c1CN1CCC(Nc2nc(NCc3ccccn3)nc3ccccc23)CC1 [Compound 84]", "Val": 2.76}
{"Compound": "COc1cc2nc(NC[C@@H](O)CO)nc(NC3CCN(Cc4c(OCCN(C)C)cccc4N(C)C)CC3)c2cc1OC [Compound 194]", "Val": 1.87}
{"Compound": "CN(C)CCCNc1nc(NC2CCN(Cc3ccccc3-n3cccc3)CC2)c2ccccc2n1 [Compound 130]", "Val": 2.99}
{"Compound": "COc1cc2nc(NCCN(C)C)nc(NC3CCN(Cc4c(OCCN(C)C)cccc4N(C)C)CC3)c2cc1OC [Compound 229]", "Val": 1.61}
{"Compound": "COc1cccc(N(C)C)c1CN1CCC(Nc2nc(NCCc3c[nH]cn3)nc3ccccc23)CC1 [Compound 119]", "Val": 2.59}

---

target: human CXCR4 receptor (Homo sapiens, UniProt P61073); construct: expressed in transfected cells; test: Measurement of intracellular Ca+2 responses (FLIPR), antagonism of the SDF-1α response; format: cell-based; conditions: percent antagonism of SDF-1α 1.9 nM (EC65) response; HEK-Gqi5 human CXCR4 cells; value in brackets
Sequence (P61073 whole entry): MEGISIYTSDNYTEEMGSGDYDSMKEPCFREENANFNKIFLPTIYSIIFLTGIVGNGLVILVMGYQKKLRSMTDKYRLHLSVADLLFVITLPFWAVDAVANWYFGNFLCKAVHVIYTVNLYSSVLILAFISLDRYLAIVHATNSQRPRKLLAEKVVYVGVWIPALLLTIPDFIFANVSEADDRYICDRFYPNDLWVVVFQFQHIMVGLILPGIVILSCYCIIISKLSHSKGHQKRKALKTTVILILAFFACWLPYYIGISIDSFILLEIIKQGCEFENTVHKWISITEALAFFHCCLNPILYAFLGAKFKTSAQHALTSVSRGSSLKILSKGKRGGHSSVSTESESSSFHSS

{"Compound": "COc1cccc(N(C)C)c1CN1CCC(Nc2nc(N(CCO)C(C)=O)nc3ccccc23)CC1 [Compound 90]", "Study System": "human CXCR4 receptor (Homo sapiens, UniProt P61073)", "Units Label": "%", "CXCR4 (% Inh)": 93}
{"Compound": "COc1cccc(N(C)C)c1CN1CCC(Nc2nc(NCCN3CC(C)OC(C)C3)nc3ccccc23)CC1 (stereo not shown) [Compound 95]", "Study System": "human CXCR4 receptor (Homo sapiens, UniProt P61073)", "Units Label": "%", "CXCR4 (% Inh)": 98}
{"Compound": "CCN(CC)CCCNc1nc(NC2CCN(Cc3ccccc3N(C)C)CC2)c2cc(OC)c(OC)cc2n1 [Compound 30]", "Study System": "human CXCR4 receptor (Homo sapiens, UniProt P61073)", "Units Label": "%", "CXCR4 (% Inh)": 100}
{"Compound": "CCN(CC)CCCNc1nc(NC2CCN(Cc3c(OCCN(C)C)cccc3N(C)C)CC2)c2cc(OC)c(OC)cc2n1 [Compound 166]", "Study System": "human CXCR4 receptor (Homo sapiens, UniProt P61073)", "Units Label": "%", "CXCR4 (% Inh)": 94}

---

biological target: human CXCR4 receptor (Homo sapiens, UniProt P61073); construct: expressed in transfected cells; experiment: Measurement of intracellular Ca+2 responses (FLIPR), antagonism of the SDF-1α response; assay type: cell-based; conditions: HEK-Gqi5 cells stably expressing human CXCR4; Fluo-4 FLIPR; antagonism of SDF-1α 1.9 nM (EC65); values given in μM
Measured Parameter: IC50 (µM)

{"Substance Smiles": "CCN(CC)CCCNc1nc(NC2CCN(Cc3ccccc3N)CC2)c2ccccc2n1", "Inequality Operator": ">", "Val": 10}
{"Substance Smiles": "CCN(CC)CCCNc1nc(NC2CCN(Cc3cccc(C)c3N(C)C)CC2)c2ccccc2n1", "Inequality Operator": "=", "Val": 1.4}
{"Substance Smiles": "COc1cccc(N(C)C)c1CN1CCC(Nc2nc(NCC3CN(C(=O)OC(C)(C)C)C3)nc3ccccc23)CC1", "Inequality Operator": "=", "Val": 2}
{"Substance Smiles": "CCN(CC)CCCCCNc1nc(NC2CCN(Cc3c(OC)cccc3N(C)C)CC2)c2ccccc2n1", "Inequality Operator": "=", "Val": 1.9}
